Collected pIC50 values appear next to each entry.
Biological target: Aromatase (Homo sapiens)
Sequence (P11511 whole entry): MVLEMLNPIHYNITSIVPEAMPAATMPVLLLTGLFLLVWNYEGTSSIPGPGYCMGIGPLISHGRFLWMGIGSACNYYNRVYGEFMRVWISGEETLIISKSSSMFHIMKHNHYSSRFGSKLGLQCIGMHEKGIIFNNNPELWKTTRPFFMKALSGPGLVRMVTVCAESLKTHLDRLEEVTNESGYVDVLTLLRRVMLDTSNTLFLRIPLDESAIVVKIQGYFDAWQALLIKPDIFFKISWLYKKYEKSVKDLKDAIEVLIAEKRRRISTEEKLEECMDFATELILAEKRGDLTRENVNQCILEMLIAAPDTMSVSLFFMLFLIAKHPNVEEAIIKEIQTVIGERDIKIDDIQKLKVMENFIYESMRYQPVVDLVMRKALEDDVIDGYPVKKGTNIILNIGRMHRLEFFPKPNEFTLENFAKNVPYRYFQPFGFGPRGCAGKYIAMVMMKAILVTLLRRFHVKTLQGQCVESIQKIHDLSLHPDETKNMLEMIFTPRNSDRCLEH
Assay: Inhibition of recombinant human aromatase using 7-methoxy-trifluoromethylcoumarin as substrate incubated for 30 mins by fluorescence microplate reader analysis
pIC50: −log10 of the molar value.

{"STRUCTURE SMILES": "N#Cc1cccc(CN(c2ccc([N+](=O)[O-])c(-c3ccccc3)c2)n2cnnc2)c1", "TARGET OF ASSAY": "Aromatase (Homo sapiens)", "pIC50": 7.14}
{"STRUCTURE SMILES": "O=[N+]([O-])c1ccc(N(Cc2ccc(Cl)cc2)n2cnnc2)cc1Br", "TARGET OF ASSAY": "Aromatase (Homo sapiens)", "pIC50": 8.04}
{"STRUCTURE SMILES": "O=[N+]([O-])c1ccc(N(Cc2ccc(C(F)(F)F)cc2)n2cnnc2)cc1-c1ccccc1", "TARGET OF ASSAY": "Aromatase (Homo sapiens)", "pIC50": 7.84}
{"STRUCTURE SMILES": "O=[N+]([O-])c1ccc(N(Cc2ccc(C(F)(F)F)cc2)n2cnnc2)cc1Br", "TARGET OF ASSAY": "Aromatase (Homo sapiens)", "pIC50": 7.36}
{"STRUCTURE SMILES": "O=[N+]([O-])c1ccc(N(Cc2ccccc2)n2cnnc2)cc1Br", "TARGET OF ASSAY": "Aromatase (Homo sapiens)", "pIC50": 7.40}
{"STRUCTURE SMILES": "N#Cc1cccc(CN(c2ccc([N+](=O)[O-])c(Br)c2)n2cnnc2)c1", "TARGET OF ASSAY": "Aromatase (Homo sapiens)", "pIC50": 7.24}
{"STRUCTURE SMILES": "O=[N+]([O-])c1ccc(Nn2cnnc2)cc1Br", "TARGET OF ASSAY": "Aromatase (Homo sapiens)", "pIC50": 7.04}
{"STRUCTURE SMILES": "O=[N+]([O-])c1ccc(N(Cc2cccc(C(F)(F)F)c2)n2cnnc2)cc1-c1ccccc1", "TARGET OF ASSAY": "Aromatase (Homo sapiens)", "pIC50": 7.76}

FYI, the data here is from ChEMBL document CHEMBL4477276.
